B1: Activity-dependent neuroprotector homeobox protein, residues 770 to 810; numbered along this chain, Q9H2P0 (parent)
chain: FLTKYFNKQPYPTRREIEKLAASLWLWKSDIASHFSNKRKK

Variants of: B1
Assay: abundance fitness (aPCA) (normalised: wild type 0, dead -1); higher = more abundant; growth selection in yeast, the domain comes from the species named
Conditions: Homo sapiens
Please provide measured abundance fitness for the entries that follow.
Lab note: jot down the number only; don't add units.

Which measured abundance fitness value corresponds to FLTKYFNKQPYPTRREIEKLAASLWEWKSDIASHFSNKRKK [L26E] ? 0.127

Try FLTKYFNKEPYPTRREIEKLAASLWLWKSDIASHFSNKRKK [Q9E] next. -0.075

Request: FLTKYFNKQPYPTRRENEKLAASLWLWKSDIASHFSNKRKK [I17N] -0.687

Thanks! And FLTKYFNKQPYPTRRIIEKLAASLWLWKSDIASHFSNKRKK [E16I] ? 0.009

What would you report for FLTKYFNKWPYPTRREIEKLAASLWLWKSDIASHFSNKRKK [Q9W] ? -0.823

For FLTKYFNKQPYPTRREIETLAASLWLWKSDIASHFSNKRKK [K19T] then? -0.302

What would you report for FLTKYFNKQPYPTAREIEKLAASLWLWKSDIASHFSNKRKK [R14A] ? -0.595

Try FLSKYFNKQPYPTRREIEKLAASLWLWKSDIASHFSNKRKK [T3S] next. 0.001

Could you do the same for FLTKYFNKQPYPTRREIEKLAASLWLWKSDAASHFSNKRKK [I31A] , please? 0.109

Same again, this time with FLTKYFNKQPYPTRREIEKLADSLWLWKSDIASHFSNKRKK [A22D] -0.25

Proceed to FLTKYFNKQPYPTRREIEKLAASLWLWHSDIASHFSNKRKK [K28H] -0.421

Follow-up item: FLTKYFNKQPYPTRREIEKLAAALWLWKSDIASHFSNKRKK [S23A] -0.177

Consider next the variant FLTKYFNKQPYPTRREIEKLAASLWLWKSDIASHFSNKRMK [K40M] in the same way. -0.069

Moving on to the next variant: FLTKYPNKQPYPTRREIEKLAASLWLWKSDIASHFSNKRKK [F6P] -0.942

Next variant up: FLTKYFNKQPYPTRREIEVLAASLWLWKSDIASHFSNKRKK [K19V] -0.502

Same thing, different variant: FLTKYFNKQPYPTRREIEKLAASLWLWKPDIASHFSNKRKK [S29P] 0.229

Repeat with FLTKYFNKQPYPTRRSIEKLAASLWLWKSDIASHFSNKRKK [E16S] -0.036

Request: FLTKYFNKQPYPTRREIEKLAASLWLWKSDLASHFSNKRKK [I31L] -0.043

Record: FLTKYFNKQPYPTRREIYKLAASLWLWKSDIASHFSNKRKK [E18Y] -0.378

// next record FLTKYFNKQPYPTRREEEKLAASLWLWKSDIASHFSNKRKK [I17E] -0.61

Next: FLTKYFNKVPYPTRREIEKLAASLWLWKSDIASHFSNKRKK [Q9V] -0.269

Now give it for FLTKYFNKQPYPTRREIEPLAASLWLWKSDIASHFSNKRKK [K19P] too. -0.864

Now give it for FLTKYFNKQPYPTRREIEKLAASLWLWKSDIASHFPNKRKK [S36P] too. -0.047

And the next one, FLTKYFNKQPYPTRREIEKLAASEWLWKSDIASHFSNKRKK [L24E] ? -0.82

Also need FLTKYFNKNPYPTRREIEKLAASLWLWKSDIASHFSNKRKK [Q9N] , thanks. -0.007

Quick one: FLVKYFNKQPYPTRREIEKLAASLWLWKSDIASHFSNKRKK [T3V] -0.544

One more variant: FLTKYFNKQPYPTRREIEKLAASLWLWKSDIASHNSNKRKK [F35N] -0.205

Note, next up: FLTKYFNKQPYPTRREIEKLAASLWLWKSDIASHFHNKRKK [S36H] 0.01

Also FLTKYFNKQYYPTRREIEKLAASLWLWKSDIASHFSNKRKK [P10Y] ? -0.155

What do we get for FLTKYFNKQPYPTRREIEKLAASLWLWKSDIAYHFSNKRKK [S33Y] ? -0.381

Same question for FLTKYFNKQPRPTRREIEKLAASLWLWKSDIASHFSNKRKK [Y11R] please. -0.035

Record: FLTKYFNYQPYPTRREIEKLAASLWLWKSDIASHFSNKRKK [K8Y] -0.554

Continue with FLTKYFNKQPYPTRREIEKLAASGWLWKSDIASHFSNKRKK [L24G] -0.228

Check FLTKNFNKQPYPTRREIEKLAASLWLWKSDIASHFSNKRKK [Y5N] too. -0.564

Please do the same for FLTKYSNKQPYPTRREIEKLAASLWLWKSDIASHFSNKRKK [F6S] as well. -0.76

Next variant: FLTKYFNKQLYPTRREIEKLAASLWLWKSDIASHFSNKRKK [P10L] -0.15

What do we get for FLTKYFNKQPYPTRREIEKLAASLWLWKSDIASHFSNKRIK [K40I] ? -0.27

Quick one: FLTKYFNKQPYPTRREIEKLAASLWLWKSTIASHFSNKRKK [D30T] -0.182

FNTKYFNKQPYPTRREIEKLAASLWLWKSDIASHFSNKRKK [L2N] ? -0.555

Param item: FLTKYFNKQPYPTRREIEKLAASLWTWKSDIASHFSNKRKK [L26T] 0.022

Please do the same for FLTKYFNKQPYPTRREIESLAASLWLWKSDIASHFSNKRKK [K19S] as well. -0.413

Cool, now FLTKYFNKQPYPTRREIEKLAASLWLWKSDIASHQSNKRKK [F35Q] -0.238

Now this one: FLTKYFNKQPYPTRREIEKLAASCWLWKSDIASHFSNKRKK [L24C] -0.122

And what about the variant FLTKYFSKQPYPTRREIEKLAASLWLWKSDIASHFSNKRKK [N7S] ? -0.107

Input FLTKYFNKQPYPTRREIEKLAASLWLWKSDIASHFSNKEKK [R39E] -0.249

Quick one: FLTKYFNKQPYPTRTEIEKLAASLWLWKSDIASHFSNKRKK [R15T] -0.005

Next: FLTKYFNKQPYPTSREIEKLAASLWLWKSDIASHFSNKRKK [R14S] -0.387

Moving on to FLTKYFNKYPYPTRREIEKLAASLWLWKSDIASHFSNKRKK [Q9Y] -0.409

Same question for FLTKYFNKQPYPTRREIEKLAASLVLWKSDIASHFSNKRKK [W25V] please. 0.133

Queued: FLTKYFNKQPYLTRREIEKLAASLWLWKSDIASHFSNKRKK [P12L] -0.22

Try this variant too: FLTKYFNKQPYPTRREIRKLAASLWLWKSDIASHFSNKRKK [E18R] 0.066

Next: FLTKYFNKQPYPTRREIEKLAASLWLWKSDIASHFSNKRKR [K41R] -0.092
